System: M-07e cells
experiment.description: M-07e cellular assay (SCF-mediated cell proliferation)
Format: cell-based
experimental.setup: Homo sapiens, 72 hours, CellTiter Glo
pEC50: −log10 of the molar value.
Listed next: entries and their corresponding pEC50.
parameter.measured: pEC50

O=C(Nc1cc(-c2noc([C@H]3C[C@@H]3F)n2)ccc1C1CC1)c1cnn2ccc(N3CC4(COC4)C3)cc12    < 6.00
Cc1ncc(-c2noc([C@H]3C[C@](O)(C(F)(F)F)C3)n2)cc1NC(=O)c1cnn2ccc(N3CC4(C3)CC(O)(C(F)F)C4)cc12    > 7.00
CC(=O)N1CCN(c2ccn3ncc(C(=O)Nc4cc(-c5noc([C@H]6C[C@@H]6F)n5)ccc4C)c3c2)C[C@H]1C    > 7.00
Cc1ccc(-c2noc([C@H]3C[C@@H]3F)n2)cc1NC(=O)c1cnn2ccc(N3CCO[C@@H](C)C3)cc12    > 7.00
